system: RXF-631 renal; assay: NCI tumour cell line growth inhibition, 48 h
Measured Metric: TGI (µM)
Kindly provide the numeric value in µM only, without the unit symbol.

Compound	Unit Spec	Measured
COc1cccc(/C=C2\CCC(CCN(C)C)(C3=CCCC3)C2=O)c1 (stereo not given)	µM	43.4

Given the entry O=NN(CCCl)C(=O)NCCCl , report its measured TGI.
203

* * *

tested on: SF-295 CNS; assay: NCI tumour cell line growth inhibition, 48 h; in the data active means GI50 below about 0.43 µM; inactive means the rest
Residues, ends and D or L forms follow the SMILES beside them. *: point of attachment. Boc = CC(C)(C)OC(=O)*
Tick one outcome: 1 (yes) (active), 0 (no) (inactive)

Look over these answered cases.
Compound	Label Class
O=C(NCc1ccc(Cl)cc1Cl)c1ccc(NC2=C(Cl)C(=O)N(Cc3ccccc3)C2=O)cc1	0 (no)
Fc1cnc(NC2CC2)nc1-c1cnc2ccc(N3CCOCC3)cn12	1 (yes)
N=C(N)N=Nc1ccc(NN=C(N)N)c2c1ncc1c2nc2sccn21	0 (no)
O=C(Nc1ccc(CN2CCOCC2)cc1)c1ccc(-c2cc(Cl)ccc2Cl)o1	0 (no)
COC(=O)CNC(=O)C(Cc1ccccc1)NC(=O)C(Cc1ccccc1)NC(=O)OC(C)(C)C (stereo not drawn) (Boc-Phe-Phe-Gly-OMe; configuration not given here)	0 (no)

Call for entry CCn1cc(C(=O)O)c(=O)c2cc(F)c(N3CCN(S(=O)(=O)c4ccc(Cl)cc4)CC3)cc21 :
0 (no)

* * *

tested on: SR leukemia; test: NCI tumour cell line growth inhibition, 48 h
Measured Metric: TGI

Study these solved cases before continuing.
Molecule	TGI
FC(F)(F)c1nnn[n-]1.[Au+].c1ccc([PH+](c2ccccc2)c2ccccc2)cc1	3.65 µM
O=C(N/N=C/c1ccccc1O)c1ccccc1O	> 100 µM
N=C(N)N=Nc1ccc(NN=C(N)N)c2c1ncc1c2nc2sccn21	> 100 µM
CCOC(=O)Nn1c(C)nnc1CC#N	> 100 µM

Given the entry COC1CC(OC2C(C)OC(OC3C(C)OC(OC4C(C)OC(O[C@H]5CC[C@@]6(C)C(=CC[C@]7(O)[C@@H]6C[C@@H](OC(=O)/C=C(\C)C(C)C)[C@@]6(C)[C@]7(O)CC[C@@]6(O)C(C)=O)C5)CC4OC)CC3OC)CC2OC)OC(C)C1O (stereo partly drawn) , report its measured TGI.
> 12.5 µM

Given the entry CCOc1nc(-c2ccccc2)cc2c(O)c(C(=O)N/N=C/c3ccc(O)cc3O)[nH]c(=O)c12 , report its measured TGI.
> 27.5 µM

Given the entry O=C1Nc2ccccc2C1=Nc1ccc(S(=O)(=O)Nc2nccs2)cc1 , report its measured TGI.
> 100 µM

Given the entry CCc1ccc(CNCC(O)c2ccccc2)cc1 (stereo not drawn) , report its measured TGI.
49.2 µM

Given the entry O=C(NCc1ccc(Cl)cc1Cl)c1ccc(NC2=C(Cl)C(=O)N(Cc3ccccc3)C2=O)cc1 , report its measured TGI.
2.55 µM

* * *

Listed next: entries and their corresponding GI50.
tested on: NCI-H226 lung; assay: NCI tumour cell line growth inhibition, 48 h

Compound	GI50
CCCCN1CCN(c2ccc3nc(-c4ccc5nc(-c6ccc(OC)c(OC)c6)[nH]c5c4)[nH]c3c2)CC1	1.34 µM
CC(=O)O[C@H]1CCC2(C)C(=CCC3C2CCC2(C)/C(=N/OC(=O)c4ccc(N(CCCl)CCCl)cc4)CCC32)C1 (some centres undefined)	> 45.3 µM
O=c1c2ccc3cccc4c(=O)c5ccc6cccc1c6c5-c2c34	> 50 µM
O=C(/C=C/c1ccc(Cl)cc1)/C=C/c1cc2ccccc2[nH]c1=O	2.59 µM
O=C(Nc1ccc(CN2CCOCC2)cc1)c1ccc(-c2cc(Cl)ccc2Cl)o1	12.2 µM
CCOC(=O)N1C/C(=C/c2ccc(F)cc2)C(=O)/C(=C/c2ccc(F)cc2)C1	3.52 µM
CCN1CCN(c2cc(C)nc(N(CCNc3ccnc4cc(Cl)ccc34)Cc3ccc4c(c3)OCO4)n2)CC1	2.43 µM
N=C(N)N=Nc1ccc(NN=C(N)N)c2c1ncc1c2nc2sccn21	32.3 µM

Turning to the following compound.
Given the entry Nc1nc(/C=C\c2ccc([N+](=O)[O-])cc2)nc(N2CCN(c3ccccc3)CC2)n1 , report its measured GI50.
40.8 µM
